system: LCLC-97TM1; assay: relative viability (nuclei count vs DMSO), 5 days (fraction); higher = more cells survive; conditions: first compound 4 µM
Doc: threshold 0.2 (exclusive). Items with relative viability beneath it return label 1; others return label 0.

molecule	labelClass
C[C@@H]1CN(CC(=O)Nc2ccc3c(c2)Cc2cccc(-c4cc(=O)cc(N5CCOCC5)o4)c2S3)C[C@H](C)O1 + CCNC(=O)c1noc(-c2cc(C(C)C)c(O)cc2O)c1-c1ccc(CN2CCOCC2)cc1 [Luminespib] (partner 0.01 µM)	label 0
Clc1ccc(Nc2nnc(Cc3ccncc3)c3ccccc23)cc1 [Vatalanib] + NC(=O)Nc1cc(-c2cccc(F)c2)sc1C(=O)N[C@H]1CCCNC1 [AZD7762] (partner 0.2 µM)	label 0
COc1cc(N2CCC(C(N)=O)CC2)ccc1Nc1nc(N)c(Cl)c(Nc2ccccc2S(=O)(=O)C(C)C)n1 [HG-5-88-01] + CC1(C)CCC(c2ccc(Cl)cc2)=C(CN2CCN(c3ccc(C(=O)NS(=O)(=O)c4ccc(N[C@H](CCN5CCOCC5)CSc5ccccc5)c(S(=O)(=O)C(F)(F)F)c4)cc3)CC2)C1 [Navitoclax] (partner 0.5 µM)	label 0
C[C@@H]1CN(CC(=O)Nc2ccc3c(c2)Cc2cccc(-c4cc(=O)cc(N5CCOCC5)o4)c2S3)C[C@H](C)O1 + CC(=O)c1c(C)c2cnc(Nc3ccc(N4CCNCC4)cn3)nc2n(C2CCCC2)c1=O [Palbociclib] (partner 0.5 µM)	label 0
COc1cc(N2CCC(C(N)=O)CC2)ccc1Nc1nc(N)c(Cl)c(Nc2ccccc2S(=O)(=O)C(C)C)n1 [HG-5-88-01] + Nc1nc2[nH]cc(CCc3ccc(C(=O)N[C@@H](CCC(=O)O)C(=O)O)cc3)c2c(=O)[nH]1 [Pemetrexed] (partner 0.2 µM)	label 1
Clc1ccc(Nc2nnc(Cc3ccncc3)c3ccccc23)cc1 [Vatalanib] + COc1cc2c(Oc3ccc(NC(=O)C4(C(=O)Nc5ccc(F)cc5)CC4)cc3F)ccnc2cc1OCCCN1CCOCC1 [Foretinib] (partner 0.25 µM)	label 0
Clc1ccc(Nc2nnc(Cc3ccncc3)c3ccccc23)cc1 [Vatalanib] + O=C(CCCCCCC(=O)Nc1ccccc1)NO [Vorinostat] (partner 1 µM)	label 0
Clc1ccc(Nc2nnc(Cc3ccncc3)c3ccccc23)cc1 [Vatalanib] + CC(=O)c1c(C)c2cnc(Nc3ccc(N4CCNCC4)cn3)nc2n(C2CCCC2)c1=O [Palbociclib] (partner 0.5 µM)	label 0
C[C@@H]1CN(CC(=O)Nc2ccc3c(c2)Cc2cccc(-c4cc(=O)cc(N5CCOCC5)o4)c2S3)C[C@H](C)O1 + CC1(C)CCC(c2ccc(Cl)cc2)=C(CN2CCN(c3ccc(C(=O)NS(=O)(=O)c4ccc(N[C@H](CCN5CCOCC5)CSc5ccccc5)c(S(=O)(=O)C(F)(F)F)c4)cc3)CC2)C1 [Navitoclax] (partner 0.5 µM)	label 0
COc1cc(N2CCC(C(N)=O)CC2)ccc1Nc1nc(N)c(Cl)c(Nc2ccccc2S(=O)(=O)C(C)C)n1 [HG-5-88-01] + CC(C)C[C@H](NC(=O)[C@H](Cc1ccccc1)NC(=O)c1cnccn1)B(O)O [Bortezomib] (partner 0.002 µM)	label 0
Clc1ccc(Nc2nnc(Cc3ccncc3)c3ccccc23)cc1 [Vatalanib] + C[C@]1(O)C[C@@H](c2nc(-c3ccc4ccc(-c5ccccc5)nc4c3)c3c(N)nccn32)C1 [Linsitinib] (partner 1 µM)	label 1
C[C@@H]1CN(CC(=O)Nc2ccc3c(c2)Cc2cccc(-c4cc(=O)cc(N5CCOCC5)o4)c2S3)C[C@H](C)O1 + N=C(N)NC(=N)NCCc1ccccc1 [Phenformin] (partner 250 µM)	label 0
C[C@@H]1CN(CC(=O)Nc2ccc3c(c2)Cc2cccc(-c4cc(=O)cc(N5CCOCC5)o4)c2S3)C[C@H](C)O1 + CC(C)C[C@H](NC(=O)[C@H](Cc1ccccc1)NC(=O)c1cnccn1)B(O)O [Bortezomib] (partner 0.002 µM)	label 0
Clc1ccc(Nc2nnc(Cc3ccncc3)c3ccccc23)cc1 [Vatalanib] + CS(=O)(=O)CCNCc1ccc(-c2ccc3ncnc(Nc4ccc(OCc5cccc(F)c5)c(Cl)c4)c3c2)o1 [Lapatinib] (partner 2 µM)	label 0
COc1cc(N2CCC(C(N)=O)CC2)ccc1Nc1nc(N)c(Cl)c(Nc2ccccc2S(=O)(=O)C(C)C)n1 [HG-5-88-01] + CC(=O)Nc1cccc(-n2c(=O)n(C3CC3)c(=O)c3c(Nc4ccc(I)cc4F)n(C)c(=O)c(C)c32)c1 [Trametinib] (partner 0.02 µM)	label 1

Cited source: the supplement of paper PMC10307832
